target system: human V1a receptor (human, UniProt P37288 1-418)
Sequence (P37288 whole entry): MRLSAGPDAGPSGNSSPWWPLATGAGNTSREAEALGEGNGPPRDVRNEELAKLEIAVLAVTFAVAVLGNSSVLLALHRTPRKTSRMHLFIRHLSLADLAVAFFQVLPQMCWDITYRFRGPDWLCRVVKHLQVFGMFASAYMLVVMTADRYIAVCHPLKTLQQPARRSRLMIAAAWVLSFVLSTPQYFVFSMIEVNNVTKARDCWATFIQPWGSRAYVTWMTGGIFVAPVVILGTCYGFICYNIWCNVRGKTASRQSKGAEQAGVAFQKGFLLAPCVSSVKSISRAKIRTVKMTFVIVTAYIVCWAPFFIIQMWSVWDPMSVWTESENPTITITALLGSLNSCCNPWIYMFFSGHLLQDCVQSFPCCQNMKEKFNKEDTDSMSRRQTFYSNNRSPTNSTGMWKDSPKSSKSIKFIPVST
assay notes: cell-based or functional assay
Some binders, each annotated with its measured V1a Highest agonist effect (% of AVP).

As a guide, the following entries are already answered.
binder: XFXNCPXG (Mpa at position 1, disulfide bond between Mpa and Cys; Hgn at position 4; Dap at position 8; C-terminal amide) [Mpa-Tyr-Phe-Hgn-Asn-Cys-Pro-Dap-Gly-NH2 [SEQ ID NO. 17]]
V1a Highest agonist effect (% of AVP): 3.5 % of AVP
//
binder: XFXNCPKG (Mpa (mercaptopropionic acid) at position 1, disulfide bond between Mpa and Cys; Hgn (homoglutamine) at position 4; C-terminal amide) [Mpa-Tyr-Phe-Hgn-Asn-Cys-Pro-Lys-Gly-NH2 [SEQ ID NO. 25]]
V1a Highest agonist effect (% of AVP): 42.8 % of AVP
//
binder: XFXNCPXG (Mpa at position 1, disulfide bond between Mpa and Cys; Hgn at position 4; (Gly)9-Ac on the side chain of Lys 8; C-terminal amide) [Mpa-Tyr-Phe-Hgn-Asn-Cys-Pro-Lys(X)a-Gly-NH2; (X)a = (Gly)9-Ac [SEQ ID NO. 26]]
V1a Highest agonist effect (% of AVP): 40 % of AVP
//
binder: XFXNCPXG (Mpa at position 1, disulfide bond between Mpa and Cys; Hgn at position 4; Dap on the side chain of Lys 8; C-terminal amide) [Mpa-Tyr-Phe-Hgn-Asn-Cys-Pro-Lys(X)a-Gly-NH2; (X)a = Dap [SEQ ID NO. 29]]
V1a Highest agonist effect (% of AVP): 7.5 % of AVP

Quick one: V1a Highest agonist effect (% of AVP) of XFXNCPXG (Mpa at position 1, disulfide bond between Mpa and Cys; Hgn at position 4; acetyl (Ac) on the side chain of Lys 8; C-terminal amide) [Mpa-Tyr-Phe-Hgn-Asn-Cys-Pro-Lys(X)a-Gly-NH2; (X)a = Ac [SEQ ID NO. 28]] ? 30 % of AVP

And the next one, XFXNCPKG (Mpa at position 1, disulfide bond between Mpa and Cys; Hgn at position 4; D-Lys at position 8; C-terminal amide) [Mpa-Tyr-Phe-Hgn-Asn-Cys-Pro-dLys-Gly-NH2 (note: dLys = D-Lys) [SEQ ID NO. 18]] ? 0.2 % of AVP

And the next one, XFXNCPXG (Mpa at position 1, disulfide bond between Mpa and Cys; Hgn at position 4; 12-aminododecanoic acid on the side chain of Lys 8; C-terminal amide) [Mpa-Tyr-Phe-Hgn-Asn-Cys-Pro-Lys(12-aminododecanoic acid)-Gly-NH2 [SEQ ID NO. 19]] ? 2.5 % of AVP
